Ref: the array DNA melting data of Ke et al. (doi:10.1101/2024.01.08.574731)

Experiment: folding enthalpy; higher = less favourable; fluorescence melt of hairpins on a sequencing array, two-state fit
Details: sodium 0.088 M
# if value of folding enthalpy reaches -50 kJ/mol, tag label 1; if it stays below, tag label 0

For orientation, consider the following solved cases.
Monomer sequence | Category
GTCAGTGGAAACACTGGC (.(((((....))))).) | label 0
GGCGACGAAAGTCTAGCC ((((((....)))..))) | label 0
GCGAGCGAAAGCTAACGC ((((((....)))..))) | label 0
GGACGCGAAAGCGGATCC ((((((....)))..))) | label 0
GTCATCGAAAGATGGGAC ((((((....)))..))) | label 0

Prompt: Is reported folding enthalpy greater than or equal to -50 kJ/mol here: GAAACCGGAAACGGCTTC (((.(((....))).)))
Completion: label 0

Prompt: Is reported folding enthalpy greater than or equal to -50 kJ/mol here: GATCGTGGAACGATC ((((((...))))))
Completion: label 0

Prompt: Is reported folding enthalpy greater than or equal to -50 kJ/mol here: GATTTCGGAAACGGAATC ((((.((....)).))))
Completion: label 0

Prompt: Is reported folding enthalpy greater than or equal to -50 kJ/mol here: GCGTTCCACGC ((((...))))
Completion: label 0

Prompt: Is reported folding enthalpy greater than or equal to -50 kJ/mol here: CAACTGAAAAGTTG (((((....)))))
Completion: label 0

* * *

Assay: melting temperature; fluorescence melt of hairpins on a sequencing array, two-state fit, raised by 9.35 °C to match UV melts
Conditions: sodium 0.088 M
Reported endpoint: Tm (°C)
Answers are plain numbers, in °C.

Below, 5 sequences whose answers are already recorded.
Monomer sequence | Reported endpoint | Unit of measurement | Value
GGTCTTGGAAACAAAACC (((.(((....))).))) | Tm | °C | 29.6
GCGACGCGAAAGCGCTGC ((..(((....)))..)) | Tm | °C | 57.1
GCACGAGGAAACCCGTAC (.(((.(....).))).) | Tm | °C | 21.9
CGCGGAATTATCCGCG ((((((....)))))) | Tm | °C | 67.2
GATGACGAAAGTCAATC ((((((....))).))) | Tm | °C | 43.7

I have 5 sequences here; please give me Tm for each one.
1. GATCAATTGTTTGATC ((((((....))))))
2. GATGGAGAAATCCATC ((((((....))))))
3. GGAGCAGGAAACTGCTTC (.(((((....))))).)
4. GGGTTTGGAAACGAACCC (((((.(....).)))))
5. GCTTCAGGAAACTGAAAC (.(((((....))))).)

Completion:
46.1
51
51.7
52.3
31.5

I have 2 sequences here; please give me Tm for each one.
1. GGTTGCCGAAAGGCTACC (((.(((....))).)))
2. GGCCATCGAAAGATCGCC (((.(((....))).)))

Completion:
61.8
46.8

* * *

Experiment: melting temperature; fluorescence melt of hairpins on a sequencing array, two-state fit, raised by 9.35 °C to match UV melts
Details: sodium 0.088 M
Reported endpoint: Tm

Below, 5 sequences whose answers are already recorded.
Monomer sequence | Reported endpoint | Value
GGCTGCGAAAGCAGCGCC ((((((....)))..))) | Tm | 68.8 °C
GAACCCGGAAACGGATTC (((.(((....))).))) | Tm | 41.5 °C
GCGTCCGTACGC ((((....)))) | Tm | 52.3 °C
GATCACTATGTGATC ((((((...)))))) | Tm | 61.1 °C
GATCGCAGTGCGATC ((((((...)))))) | Tm | 67.6 °C

I have 2 sequences here; please give me Tm for each one.
1. GCGAATCGAAAGATGCGC (((.(((....))).)))
2. GGTCAAGGAAACTCGACC ((((.((....)).))))

Completion:
60.6 °C
40.8 °C
